Reference for the values: ChEMBL document CHEMBL4316618

# System: Mus musculus
# assay.details: Sedative activity in ip dosed Albino Swiss CD-1 mouse assessed as effect on locomotor activity by measuring reduction in number of light beam crossings treated for 30 mins measured for next 30 mins
# Assay type: organism-based
# test.parameters: in vivo, 0.5 h
Please respond with reported ED50 for every item in the list.
Response body: numeric value in mg/kg, unit text excluded.

Would you kindly share the measured ED50 for "O=C(C1=C(O)c2ccccc2S(=O)(=O)N1CC(=O)N1CCN(c2ncccn2)CC1)c1ccc(Br)cc1" ?
29.89

Let us now turn to "O=C(C1=C(O)c2ccccc2S(=O)(=O)N1CCCN1CCN(c2cccc(C(F)(F)F)c2)CC1)c1ccccc1"
38.41

Input "Cc1ccc(C(=O)C2=C(O)c3ccccc3S(=O)(=O)N2CC(=O)N2CCN(c3ccccc3)CC2)cc1"
40.34

Can you handle "COc1ccccc1N1CCN(CCCN2C(C(=O)c3ccccc3)=C(O)c3ccccc3S2(=O)=O)CC1" next?
33.18

Try "COc1ccccc1N1CCN(C(=O)CN2C(C(=O)c3ccccc3)=C(O)c3ccccc3S2(=O)=O)CC1" next.
32.1

Quick one: "Cc1ccc(C(=O)C2=C(O)c3ccccc3S(=O)(=O)N2CCCN2CCN(c3ccccc3)CC2)cc1"
35.42

Also "O=C(C1=C(O)c2ccccc2S(=O)(=O)N1CCCN1CCN(c2ccccc2)CC1)c1ccccc1" ?
34.12

Then this molecule: "O=C(C1=C(O)c2ccccc2S(=O)(=O)N1CC(=O)N1CCN(c2ccccc2)CC1)c1ccc(F)cc1"
26.15

Next record, please: "O=C(C1=C(O)c2ccccc2S(=O)(=O)N1CC(=O)N1CCN(c2ccccc2)CC1)c1ccccc1"
31.55
